- System: AncSZ
- experiment_description: phosphorylation enrichment, bacterial display (enrichment ratio); higher = better substrate or ligand; peptides without Tyr show the background
Classify as follows. Reported phosphorylation enrichment greater than or equal to 0.9: condition met. Reported phosphorylation enrichment below: condition not met.

AGQEDDDRLRP [RAC1_Y64_Y64D] :: condition met
ESKKHYGFSLF [ANXA3_Y295_F291S_YF] :: condition met
PLQDVYKIGGI [EEF1A2_Y254] :: condition met
SVVVTYEPPEV [TP53_Y220_P219T] :: condition met
LRFDSYSSFCN [SLC20A2_Y433_YF] :: condition met
FSPPFYHRNCM [HGD_Y334_R330S_YF] :: condition met
NHRNQYQALKP [CLSPN_Y887] :: condition not met
KALKQYRASPS [DDX27_Y763_G766S] :: condition not met
HGQVNYEEFVQ [CALM2_Y139_D134H] :: condition met
PEYVVYKPQME [CCRL2_Y170_F167Y] :: condition met
RTLTHYKSAVK [ASNS_Y555] :: condition not met
NGQAVYAACQT [XDH_Y1092] :: condition not met
IGLHAYGDQFR [IDH1_Y135_R132L_YF] :: condition not met

====

- System: Fer (mouse)
- experiment_description: phosphorylation enrichment, bacterial display (enrichment ratio); higher = better substrate or ligand; peptides without Tyr show the background
Classify as follows. Reported phosphorylation enrichment greater than or equal to 0.7: Fulfilled. Reported phosphorylation enrichment below: Not fulfilled.

YPSLPYSPVSS [CAMKK2_Y128_C123Y] :: Fulfilled
EKGEEYGGGGG [TUBA1A_Y451_E447K] :: Not fulfilled
SGFESYGSSSY [RPA2_Y9] :: Not fulfilled
SEDSEYYRAFE [CASQ2_Y178_K180R] :: Not fulfilled
VVIVLYFSLWK [SLC6A2_Y249] :: Not fulfilled
QYPDVYAREEV [CRX_Y67] :: Fulfilled
KLSCSYSHWSA [C4BPA_Y470] :: Not fulfilled

====

- target_under_test: Grb2 SH2 (UniProt P62993)
- Sequence (P62993 whole entry, looked up): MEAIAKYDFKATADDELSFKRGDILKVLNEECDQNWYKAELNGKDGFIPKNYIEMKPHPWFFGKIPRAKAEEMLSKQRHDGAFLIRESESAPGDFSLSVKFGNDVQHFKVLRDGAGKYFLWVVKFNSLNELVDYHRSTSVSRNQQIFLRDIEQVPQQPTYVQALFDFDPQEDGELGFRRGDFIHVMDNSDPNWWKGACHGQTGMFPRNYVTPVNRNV
- experiment_description: SH2 binding enrichment of the phosphorylated peptide, bacterial display (enrichment ratio); higher = better substrate or ligand; peptides without Tyr show the background
Classify as follows. Reported SH2 binding enrichment greater than or equal to 0.9: 1 (yes). Reported SH2 binding enrichment below: 0 (no).

EVDELYREAPI [MYL12B_Y143] :: 0 (no)
KLPDAYERFIL [G6PD_Y437_L440F] :: 1 (yes)
SVTCTYSPAPN [TP53_Y126_L130P] :: 0 (no)
PTYKHYANSTQ [SLC12A3_Y70_E68K] :: 0 (no)
HLQDEYDFKCK [STAT1_Y170_D165H] :: 0 (no)
ELTAKYLNYYR [P3H4_Y181_Q186R] :: 1 (yes)
DDKEYYSVHNK [MET_Y1235_Y1230D] :: 0 (no)
LFQAKYQIRFR [CRLF1_Y272_YF] :: 1 (yes)
DAICYYRMENA [NPHS2_Y195] :: 1 (yes)
SAPPSHEETVA [LITAF_Y23_Y23H] :: 0 (no)
SRFQFYFQQKG [CHKB_Y381] :: 0 (no)
SSNPEYLSASD [INSR_Y999] :: 1 (yes)
STTSDYQWDFS [MTDH_Y364_V368F] :: 0 (no)
GHLFACDWISI [BEST1_Y227_Y227C_YF] :: 1 (yes)
VSRGRYRPQEC [B4GALT4_Y113] :: 0 (no)
CLAQRYLIWEC [SCN5A_Y694_R689C] :: 1 (yes)
LQEQNYPAVDS [FAM114A1_Y115_L116P] :: 0 (no)
DKGTLYIVEQI [PLBD1_Y375] :: 0 (no)
SVTCTYTPALN [TP53_Y126_S127T] :: 0 (no)
SQGRQYQELPR [KCNH2_Y1009_R1005Q] :: 0 (no)
VDSNPYSRLMA [UBA5_Y53] :: 0 (no)
CTTIHYNYKCN [TP53_Y234_M237K] :: 1 (yes)
PLQDVYKIGGI [EEF1A2_Y254] :: 1 (yes)
PLRPDYQEPSR [DDR2_Y481] :: 1 (yes)
ESKKHYGFSLF [ANXA3_Y295_F291S_YF] :: 1 (yes)
KNCFKYYMSDD [ATRX_Y203] :: 0 (no)
SGVSYYINLCQ [IGF2R_Y2025_N2020S] :: 0 (no)
EGWQVYRLGTR [MISP_Y95_A99T] :: 1 (yes)
KVKSIYFHTQG [AR_Y916_P914S] :: 0 (no)
KPGVNYFFRVS :: 0 (no)
CLLHCYFSQIH [MCM3AP_Y873_R878H] :: 1 (yes)
HRLSTYTKMLF [CHST8_Y251] :: 1 (yes)
KLADVYQAELR [GFAP_Y116] :: 0 (no)
EQSGSYIWVLA [DLG1_Y895_P899L] :: 0 (no)
DFCDLYGGEKF [PTPN11_Y66_Y63C_YF] :: 1 (yes)
VECQVYAEDPY [PCCA_Y401_R399Q] :: 0 (no)
VSLEAYCKHKY [RXRA_Y403_A398V] :: 0 (no)
NNIDFYKKTTN [FGFR2_Y657_YF] :: 0 (no)
DDKQPYEKKAA [HMGB1_Y144] :: 1 (yes)
ALDHKYHGGGG [HBB_Y146_A143D] :: 0 (no)
GVLDIYGFEIL [MYO1A_Y382] :: 0 (no)
AFGGGYGGVLT [KRT19_Y65_YF] :: 0 (no)
VDSAHYKLLET [DTX3L_Y385] :: 0 (no)
ECKASYPGKIT [PRSS3_Y232] :: 0 (no)
DKNSSYFADWL [TUBB8_Y340] :: 1 (yes)
TEDAEYDVQSK [PTCHD3_Y335_P333A] :: 1 (yes)
YGSSSYGGAGG [RPA2_Y14] :: 0 (no)
NHRNQYQALKP [CLSPN_Y887] :: 1 (yes)

The origin of these recorded values is the supplement of paper PMC10065799.
